Data origin, for the record: PubChem BioAssay (NCI)

tested on: HCT-116 colon; assay: NCI-60 one-dose screen, 48 h (100 = growth as untreated, 0 = no growth, -100 = all killed); conditions: 10 µM unless noted
The panel holds about 83,000 compounds, 20% with a hit somewhere; the sample as a whole holds those more often.
attribute_measured: growth (%)
Answer format: numeric, % implied, no suffix.

Consider the reported growth for these compounds:
compound: COc1cc(C2CC(c3cc(OC)c(OC)c(OC)c3)=Nc3c(N)nc(N)nc3N2)ccc1Oc1nc(Nc2ccc(F)cc2)nc(N(C)C)n1 (stereo not drawn)
growth, %: 22.9
//
compound: CC[C@]12C=CCN3CC[C@@]4(c5ccc(OC)cc5N(C)[C@H]4[C@@](O)(C(=O)OC)[C@@H]1OC(=O)CCC[P+](c1ccc(OC)cc1)(c1ccc(OC)cc1)c1ccc(OC)cc1)[C@@H]32
growth, %: -68.8
//
compound: CC1=C(C(=O)OCc2ccccc2)C(c2cccc3ccccc23)n2c(nc3ccccc32)N1 (stereo not drawn)
growth, %: 17.7
//
compound: COc1ccc(C(=O)c2cc(C(C)=O)c3c(C)cc(C)cn23)cc1
growth, %: 19.6
//
compound: CN1C(=O)C2(C(C#N)=C(c3ccc(Cl)cc3)Nc3c2c(-c2ccccc2)nn3-c2ccccc2)c2ccccc21 (stereo not drawn)
growth, %: 73.8
//
compound: O=C1Nc2cc(-c3ccc(NS(=O)(=O)c4ccc([N+](=O)[O-])cc4)cc3)ccc2/C1=C/c1ccc[nH]1
growth, %: -48.6

Prompt line: Recorded growth of COc1ccc(-c2nc3ccc(-c4nnc(SCc5ccccc5)o4)cc3[nH]2)cc1 , please.
Response line: -60.5

Prompt line: CCOC(=O)/C(F)=C/C1CC1C(c1ccccc1)c1ccccc1 (stereo not drawn) ?
Response line: 62

----------
test system: BT-549 breast; assay: NCI-60 one-dose screen, 48 h (100 = growth as untreated, 0 = no growth, -100 = all killed); conditions: 10 µM unless noted
The panel holds about 83,000 compounds, 20% with a hit somewhere; the sample as a whole holds those more often. Active and inactive are the calls of the source. Rule for the calls: active = growth percent below 10; inactive = the rest.
attribute_measured: growth

Consider the reported growth for these compounds:
compound: COc1ccc2ccccc2c1/C=C1\SC(=Nc2ccc(O)cc2)NC1=O
result_value: -22.6% (active)
--
compound: CCCCCCCCCc1ccc(C(=O)Nc2cc(C)ccc2C(=O)OC)cc1
result_value: 129% (inactive)
--
compound: Cc1cc(C)c2[nH]c(=O)c(C(c3nnnn3Cc3ccc4c(c3)OCO4)N3CCN(C)CC3)cc2c1 (stereo not drawn)
result_value: 106% (inactive)

Prompt line: Recorded growth of CC1=C(C(=O)Nc2ccccc2)C(c2cccc(Cl)c2Cl)n2c(nc3ccccc32)N1 (stereo not drawn) , please.
Response line: 71% (inactive)

Prompt line: COc1ccccc1Nc1nnc(-c2c[nH]c3ccccc23)o1 ?
Response line: 39.7% (inactive)

Prompt line: Cc1ccc(C(=O)Nc2cc(-c3ccccc3)cc(C(F)(F)F)c2)cc1C#Cc1cnc2cccnn12 ?
Response line: 139% (inactive)

Prompt line: COc1ccc(NC2=C(I)C(=O)C(C)=C(C)C2=O)cc1 ?
Response line: 81.4% (inactive)

Prompt line: O=C1Nc2cc(-c3ccc(NS(=O)(=O)c4ccc(-c5ccccc5)cc4)cc3)ccc2/C1=C/c1ccc[nH]1 ?
Response line: 3.7% (active)

Prompt line: Nc1cc(-c2c[nH]c3ccc(Br)cc23)nc2cc(-c3c[nH]c4ccccc34)nn12 ?
Response line: -21.4% (active)

Prompt line: OC1CCC(Cn2c(C(F)(F)F)cc3c(Cl)ncnc32)CC1 (stereo not drawn) ?
Response line: -37.7% (active)

Prompt line: O=C(N/N=C/c1occc1Br)c1[nH]c2ccc(Br)cc2c1-c1ccccc1 ?
Response line: -89.4% (active)

Prompt line: O=C(Nc1ccc(-c2ccc3c(c2)NC(=O)/C3=C\c2ccc[nH]2)cc1)Nc1ccc(Cl)c(Cl)c1 ?
Response line: 40.5% (inactive)

Prompt line: COc1ccc(-c2cc(C(=O)Oc3ccc(C=O)cc3OC)nn2-c2ccc(S(C)(=O)=O)cc2)cc1 ?
Response line: 105% (inactive)

Prompt line: Nc1nc(-c2ccccc2)c(N=Nc2ccc(Cl)cc2Cl)s1 ?
Response line: -47.2% (active)

Prompt line: CC1CCc2c(sc3nc(SCC(=O)c4cccc(Br)c4)n(-c4ccccc4)c(=O)c23)C1 (stereo not drawn) ?
Response line: 78.5% (inactive)

Prompt line: CC[C@@]12CC(C(=O)OC)=C3Nc4cc5c(cc4[C@@]34CCN(C[C@H]3O[C@H]31)[C@@H]24)[C@@H]1[C@H](O5)[C@@H](O)[C@@]2(CC)CC(C(=O)OC)=C3Nc4cc(O)ccc4[C@@]34CCN1[C@@H]24 ?
Response line: -87.6% (active)

Prompt line: O=C(CSc1nnc(-c2ccc(-c3nc4ccc(Cl)cc4[nH]3)cc2)o1)Nc1ccc(Cl)cc1 ?
Response line: -9.75% (active)

Prompt line: CC1CCc2c(sc3nc(SCC(=O)c4cccc([N+](=O)[O-])c4)n(-c4ccccc4)c(=O)c23)C1 (stereo not drawn) ?
Response line: 94.5% (inactive)

----------
test system: MCF7 breast; test: NCI-60 one-dose screen, 48 h (100 = growth as untreated, 0 = no growth, -100 = all killed); conditions: 10 µM unless noted
Compounds without any hit were thinned out: in the full panel of roughly 83,000, 20% have a hit. Calls of active or inactive are those of the source. Rule for the calls: active = growth percent below 10; inactive = the rest.
attribute_measured: growth

molecule: Cn1cc(-c2cc(N)n3nc(-c4c[nH]c5ccc(F)cc45)cc3n2)c2cc(Br)cnc21
target_of_assay: MCF7 breast
growth: 47.1% (inactive)

Prompt line: Recorded growth of Cc1cccc(/C=C/c2ccc(NC(=S)NCCCCN(C)C)cc2)c1 , please.
Response line: -73.7% (active)

Prompt line: O=C(NN1C(=O)/C(=C/C=C/c2ccc([N+](=O)[O-])o2)SC1=S)c1ccncc1 ?
Response line: -53.4% (active)

Prompt line: N#Cc1ccc(C(=O)CSc2nc3c(c(Nc4ccc(S(N)(=O)=O)cc4)n2)CCC3)cc1 ?
Response line: 19.2% (inactive)

----------
tested on: OVCAR-3 ovarian; assay: NCI-60 one-dose screen, 48 h (100 = growth as untreated, 0 = no growth, -100 = all killed); settings: 10 µM unless noted
Compounds without any hit were thinned out: in the full panel of roughly 83,000, 20% have a hit.
growth by entry:
Answer format: numeric, % implied, no suffix.

Prompt line: Recorded growth of NC(=O)c1ccc(-c2ccc3ncnc(N4CCc5cc(F)c(Cl)cc54)c3c2)cn1 , please.
Response line: 64.8

----------
system: BT-549 breast; experiment: NCI-60 one-dose screen, 48 h (100 = growth as untreated, 0 = no growth, -100 = all killed); settings: 10 µM unless noted
This is part of a sample that, as a whole, favours compounds with a hit. Of some 83,000 tested, about 20% had one in any assay.
// assign label 1 if growth falls strictly below 20%, else label 0 (ties count as label 0)

smiles_data: CCCN(CCC)S(=O)(=O)c1ccc(C(=O)O)cc1.CCCN(CCC)S(=O)(=O)c1ccc(C(=O)O)cc1.[Cl][Pt+2][Cl].[NH2-].[NH2-]
category_label: label 1
//
smiles_data: Cc1cccc(-c2ccccc2Oc2ccc3nnc(Cl)n3n2)c1
category_label: label 0
//
smiles_data: O=C(Nc1ccc(S(=O)(=O)N2CCCCC2)cc1)C(Cl)Cl
category_label: label 0
//
smiles_data: CN1CCc2c(sc3ncnc(N/N=C/c4cccc(Cl)c4Cl)c23)C1
category_label: label 0
//
smiles_data: CS(=O)(=O)Nc1cc(-c2ccc3ncnc(N4CCc5cc(F)c(Cl)cc54)c3c2)cnc1Cl
category_label: label 1

Prompt line: Is growth of CNc1nc2ccccc2n2c(-c3ccc(O)c(O)c3)cnc12 strictly below 20%?
Response line: label 1

Prompt line: COc1cc(/C=N/NC(=O)c2ccc(OCc3nc4ccc(C)cc4[nH]3)cc2)cc(OC)c1OC ?
Response line: label 0

Prompt line: C=CCSc1nnc(-c2ccc(-c3nc4ccc(Cl)cc4[nH]3)cc2)o1 ?
Response line: label 0

Prompt line: Nc1nn2c(-c3cc4cc(Br)ccc4oc3=O)ccnc2c1N=Nc1ccccc1 ?
Response line: label 1

----------
tested on: U251 CNS; test: NCI-60 one-dose screen, 48 h (100 = growth as untreated, 0 = no growth, -100 = all killed); conditions: 10 µM unless noted
About 83,000 compounds went through this panel and 20% of them were active in at least one assay; those are over-represented in the sample as a whole.
// assign Satisfied if growth falls strictly below 10%, else Not satisfied (ties count as Not satisfied)

compound: CC1=C(C(=O)OC(C)C)C(c2ccc(O)cc2)NC(=O)N1 (centres undefined)
category_label: Not satisfied
--
compound: Cc1cc(C(NC(=O)C2CC3(CC(Nc4cccc5c4C(=O)N(C4CCC(=O)NC4=O)C5=O)C3)C2)c2ccc3c(c2)OC(F)(F)O3)c(O)c2ncccc12 (centres undefined)
category_label: Satisfied
--
compound: Cc1nc(Nc2ccccn2)sc1C1=NNC(c2ccccc2F)C1 (centres undefined)
category_label: Not satisfied
--
compound: O=C(Nc1ccc(-c2ccc3c(c2)NC(=O)/C3=C\c2ccc[nH]2)cc1)Nc1ccc(Cl)c(Cl)c1
category_label: Not satisfied
--
compound: Cc1cc(C(NC(=O)CCCCCNc2cccc3c2C(=O)N(C2CCC(=O)CC2=O)C3=O)c2cccc(N(C)C)c2)c(O)c2ncccc12 (centres undefined)
category_label: Not satisfied

Prompt line: Is growth of CCOc1ccccc1NC(=O)N/C(N)=N/c1nc2ccccc2s1 strictly below 10%?
Response line: Not satisfied

Prompt line: O=C1Nc2ccc(F)cc2/C1=C/C(=O)c1cc2ccccc2oc1=O ?
Response line: Not satisfied

Prompt line: COc1ccc(N=Nc2c(N)nn3c(-c4ccc([N+](=O)[O-])cc4)ccnc23)cc1 ?
Response line: Not satisfied

Prompt line: Oc1ccc(Cl)c(Nc2nc(SCCN3CCOCC3)nc3c2cnn3CC(Cl)c2ccc(Br)cc2)c1 (centres undefined) ?
Response line: Not satisfied

Prompt line: Clc1ccccc1Nc1nnc(-c2c[nH]c3ccccc23)o1 ?
Response line: Satisfied
